# Assay method text: in vivo
# Condition details: both, cynomolgus monkey, po, 0.3 mg/kg

- Compound: "O=C(NN1C(=O)C2C3C=CC(C4CC34)C2C1=O)c1ccc(C(F)(F)F)cc1 (stereo not shown) [ST-246]"
  CL/F / mL/min/kg: 15.3

====

# Assay method text: in vivo
# Condition details: female, BALB/c, mouse, po, 300 mg/kg, AUC0-24 hr

- Compound: "O=C(NN1C(=O)C2C3C=CC(C4CC34)C2C1=O)c1ccc(C(F)(F)F)cc1 (stereo not shown)"
  AUC(0-t) / µg·h/mL: 669

====

# Assay method text: in vivo
# Condition details: female, BALB/c, mouse, iv, 2.3 mg/kg, Cmax

- Compound: "O=C(NN1C(=O)C2C3C=CC(C4CC34)C2C1=O)c1ccc(C(F)(F)F)cc1 (stereo not shown) [ST-246]"
  Cmax [ng/mL]: 22400

// provenance: patent US9907859B2
